# TARGET SYSTEM: Glutamate receptor ionotropic, AMPA (Rattus norvegicus, UniProt P19490+P19491+P19492+P19493)
# RUN DESCRIPTION: Displacement of [3H]AMPA from Ionotropic glutamate receptor AMPA of rat cortical membranes
Doc: threshold 0.2 µM (exclusive). Items with IC50 beneath it return criterion met; others return criterion not met.

IN: Lab note: confirm whether the reported IC50 for this compound is below 0.2 µM, equality not counting. compound: NC1c2ccccc2-c2nc(O)c3nc(C(=O)O)cn3c21 (centres undefined)
OUT: criterion met

IN: Item O=C(O)CCC(=O)NC1c2ccccc2-c2nc(O)c3nc(C(=O)O)cn3c21 (centres undefined) : IC50 beneath 0.2 µM, strictly?
OUT: criterion met

IN: Report whether reported IC50 is lower than 0.2 µM (strictly) for O=C(O)c1cn2c3c(nc(O)c2n1)-c1ccccc1C3n1cccc1 (centres undefined)
OUT: criterion met

IN: # check: IC50 < 0.2 µM for O=C(O)CCCO/N=C1\c2ccccc2-c2nc(O)c3nc(C(=O)O)cn3c21
OUT: criterion met

IN: State whether 0.2 µM exceeds IC50 recorded for O=C(O)c1cn2c3c(nc(O)c2n1)-c1ccccc1C3=O .
OUT: criterion not met

IN: Determine whether this compound shows IC50 lower than 0.2 µM (ties excluded): CC1(CCCCC(=O)O)c2ccccc2-c2nc(O)c3nc(C(=O)O)cn3c21 (centres undefined)
OUT: criterion not met

IN: Is it true that IC50 reported for O=C(Nc1ccccc1)NC1c2ccccc2-c2nc(O)c3nc(C(=O)O)cn3c21 (centres undefined) is less than 0.2 µM?
OUT: criterion met

IN: Input O=C(O)c1cn2c3c(nc(O)c2n1)-c1ccccc1C3N1CC=CC1=O (centres undefined) ; condition: IC50 strictly below 0.2 µM. Does it hold?
OUT: criterion met

IN: Hello, is IC50 of the following compound strictly smaller than 0.2 µM? O=Nc1c2n3cc(C(=O)O)[nH]c3c(O)nc-2c2ccccc12
OUT: criterion met
